Data provenance: the supplement of paper PMC6757056

B1: library; a variant is named by its letters at N, in order (parent)
chain: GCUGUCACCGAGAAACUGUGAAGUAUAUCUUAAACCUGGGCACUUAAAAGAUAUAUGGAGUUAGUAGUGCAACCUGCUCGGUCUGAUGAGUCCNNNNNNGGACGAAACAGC

# Variants of: B1
# TEST: normalized RNA/DNA level with ligand (relative to sTRSVctl = 100) (log10 (% of sTRSVctl)); HEK293T; ligand: cyclic di-GMP (c-di-GMP-II aptamer); ligand concentration (+) RNA-Seq: 1 mM; higher = less ribozyme self-cleavage, higher mRNA level
# EXPERIMENTAL_CONDITIONS: reporter: mCherry (pCS4076), ligand present: yes
OBSERVED_PROPERTY: normalized RNA/DNA level with ligand (log10)

- SEQUENCE_CODE: "GCUGUCACCGAGAAACUGUGAAGUAUAUCUUAAACCUGGGCACUUAAAAGAUAUAUGGAGUUAGUAGUGCAACCUGCUCGGUCUGAUGAGUCCUGCCAAGGACGAAACAGC [UGCCAA]"
  READOUT_NUMBER: 1.83
- SEQUENCE_CODE: "GCUGUCACCGAGAAACUGUGAAGUAUAUCUUAAACCUGGGCACUUAAAAGAUAUAUGGAGUUAGUAGUGCAACCUGCUCGGUCUGAUGAGUCCUGAAAUGGACGAAACAGC [UGAAAU]"
  READOUT_NUMBER: 1.84
- SEQUENCE_CODE: "GCUGUCACCGAGAAACUGUGAAGUAUAUCUUAAACCUGGGCACUUAAAAGAUAUAUGGAGUUAGUAGUGCAACCUGCUCGGUCUGAUGAGUCCCAAAAGGGACGAAACAGC [CAAAAG]"
  READOUT_NUMBER: 1.77
- SEQUENCE_CODE: "GCUGUCACCGAGAAACUGUGAAGUAUAUCUUAAACCUGGGCACUUAAAAGAUAUAUGGAGUUAGUAGUGCAACCUGCUCGGUCUGAUGAGUCCACUACCGGACGAAACAGC [ACUACC]"
  READOUT_NUMBER: 1.86
- SEQUENCE_CODE: "GCUGUCACCGAGAAACUGUGAAGUAUAUCUUAAACCUGGGCACUUAAAAGAUAUAUGGAGUUAGUAGUGCAACCUGCUCGGUCUGAUGAGUCCGUUAUAGGACGAAACAGC [GUUAUA]"
  READOUT_NUMBER: 1.75
- SEQUENCE_CODE: "GCUGUCACCGAGAAACUGUGAAGUAUAUCUUAAACCUGGGCACUUAAAAGAUAUAUGGAGUUAGUAGUGCAACCUGCUCGGUCUGAUGAGUCCGGGCGCGGACGAAACAGC [GGGCGC]"
  READOUT_NUMBER: 1.92
- SEQUENCE_CODE: "GCUGUCACCGAGAAACUGUGAAGUAUAUCUUAAACCUGGGCACUUAAAAGAUAUAUGGAGUUAGUAGUGCAACCUGCUCGGUCUGAUGAGUCCGAUUGUGGACGAAACAGC [GAUUGU]"
  READOUT_NUMBER: 1.82
- SEQUENCE_CODE: "GCUGUCACCGAGAAACUGUGAAGUAUAUCUUAAACCUGGGCACUUAAAAGAUAUAUGGAGUUAGUAGUGCAACCUGCUCGGUCUGAUGAGUCCCUUUGGGGACGAAACAGC [CUUUGG]"
  READOUT_NUMBER: 1.87
- SEQUENCE_CODE: "GCUGUCACCGAGAAACUGUGAAGUAUAUCUUAAACCUGGGCACUUAAAAGAUAUAUGGAGUUAGUAGUGCAACCUGCUCGGUCUGAUGAGUCCCAUUGAGGACGAAACAGC [CAUUGA]"
  READOUT_NUMBER: 1.76
- SEQUENCE_CODE: "GCUGUCACCGAGAAACUGUGAAGUAUAUCUUAAACCUGGGCACUUAAAAGAUAUAUGGAGUUAGUAGUGCAACCUGCUCGGUCUGAUGAGUCCUUUCAUGGACGAAACAGC [UUUCAU]"
  READOUT_NUMBER: 1.83
- SEQUENCE_CODE: "GCUGUCACCGAGAAACUGUGAAGUAUAUCUUAAACCUGGGCACUUAAAAGAUAUAUGGAGUUAGUAGUGCAACCUGCUCGGUCUGAUGAGUCCCCUGGUGGACGAAACAGC [CCUGGU]"
  READOUT_NUMBER: 1.83
